From: patent US20250136559A1

Please respond with reported Human WT % Inh for every item in the list.
# TARGET OR SYSTEM: hSMO WT (Homo sapiens, UniProt Q99835)
# Construct: expressed in transfected cells; host or cells: SMO knock-out mouse embryonic fibroblasts (MEF SMO-/-), BacMam transduction
# Sequence (Q99835 28-787): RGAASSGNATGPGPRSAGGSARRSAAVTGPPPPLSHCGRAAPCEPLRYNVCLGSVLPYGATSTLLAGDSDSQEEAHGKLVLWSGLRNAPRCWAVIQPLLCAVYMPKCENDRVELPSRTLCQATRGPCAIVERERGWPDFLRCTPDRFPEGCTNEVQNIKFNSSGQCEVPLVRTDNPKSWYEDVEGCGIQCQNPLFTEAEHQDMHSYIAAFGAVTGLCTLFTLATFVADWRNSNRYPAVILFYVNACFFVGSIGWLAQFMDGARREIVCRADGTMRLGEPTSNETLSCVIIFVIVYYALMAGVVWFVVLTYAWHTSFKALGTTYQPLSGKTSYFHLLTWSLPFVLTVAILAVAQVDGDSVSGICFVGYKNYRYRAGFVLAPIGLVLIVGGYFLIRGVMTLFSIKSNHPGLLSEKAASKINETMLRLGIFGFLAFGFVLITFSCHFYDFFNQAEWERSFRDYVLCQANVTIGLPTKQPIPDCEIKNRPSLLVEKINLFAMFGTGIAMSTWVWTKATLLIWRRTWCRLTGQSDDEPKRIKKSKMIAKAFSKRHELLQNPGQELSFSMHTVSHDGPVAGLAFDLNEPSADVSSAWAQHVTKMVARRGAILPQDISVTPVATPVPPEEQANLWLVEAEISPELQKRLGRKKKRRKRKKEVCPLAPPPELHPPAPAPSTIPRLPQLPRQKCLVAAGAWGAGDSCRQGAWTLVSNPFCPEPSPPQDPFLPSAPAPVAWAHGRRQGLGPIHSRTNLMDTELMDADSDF
# PROTOCOL SUMMARY: Human assay: Gli1 qPCR in MEF SMO-/- cells BacMam-transduced with hSMO WT; also: test concentration or dose not given here
# Type: cell-based
# RUN PARAMETERS: mSHh-treated, 24 hours, percentage Gli1 inhibition
Numbers only, in %.

Please supply Human WT % Inh for each of the following items, keeping them in order.
1. Cc1c(-c2ccc(NC(=O)c3ccc(Cl)c(CN4CCS(=O)(=O)CC4)c3)cc2)nn(C)c1C1CC1
2. O=C(Nc1ccc(-c2noc(Cc3ccc(F)cc3)n2)cc1)c1cccc(CN2CCS(=O)(=O)CC2)c1
3. Cc1c(-c2ccc(NC(=O)c3ccc(Cl)c(CN4CCS(=O)(=O)CC4)c3)cc2)n[nH]c1C1CC1
4. O=C(Nc1ccc(-c2cc(C3CC3)n[nH]2)cc1)c1cccc(CN2CCS(=O)(=O)CC2)c1
5. Cc1oc(-c2ccc(NC(=O)c3ccc(F)c(CN4CCS(=O)(=O)CC4)c3)cc2)nc1C1CC1

1. 99.2
2. 99.3
3. 98.6
4. 95.4
5. 93.6

Please supply Human WT % Inh for each of the following items, keeping them in order.
1. Cc1oc(-c2ccc(NC(=O)c3cccc(CN4CCS(=O)(=O)CC4)c3)cc2)nc1C1CC1
2. CC(C)c1noc(-c2ccc(NC(=O)c3cccc(CN4CCS(=O)(=O)CC4)c3)cc2)n1
3. O=C(Nc1ccc(-c2nc(Cc3ccc(Br)cc3)n[nH]2)cc1)c1cccc(CN2CCS(=O)(=O)CC2)c1
4. CS(=O)(=O)c1ccc(C(=O)Nc2ccc(Cl)c(-c3ccccn3)c2)c(Cl)c1 [Vismodegib, reference compound]

1: 97.8; 2: 88.4; 3: 94; 4: 100.1

Please supply Human WT % Inh for each of the following items, keeping them in order.
1. O=C(Nc1ccc(-c2nc(C3CC3)n[nH]2)cc1)c1cccc(CN2CCS(=O)(=O)CC2)c1
2. O=C(Nc1ccc(-c2nc(C3CCCC3)n[nH]2)cc1)c1cccc(CN2CCS(=O)(=O)CC2)c1

1: 85.9; 2: 83.4
